Origin of values: patent US9334290B2

Molecular target: human recombinant Btk (Homo sapiens (Human), UniProt Q06187)
Sequence (Q06187 whole entry): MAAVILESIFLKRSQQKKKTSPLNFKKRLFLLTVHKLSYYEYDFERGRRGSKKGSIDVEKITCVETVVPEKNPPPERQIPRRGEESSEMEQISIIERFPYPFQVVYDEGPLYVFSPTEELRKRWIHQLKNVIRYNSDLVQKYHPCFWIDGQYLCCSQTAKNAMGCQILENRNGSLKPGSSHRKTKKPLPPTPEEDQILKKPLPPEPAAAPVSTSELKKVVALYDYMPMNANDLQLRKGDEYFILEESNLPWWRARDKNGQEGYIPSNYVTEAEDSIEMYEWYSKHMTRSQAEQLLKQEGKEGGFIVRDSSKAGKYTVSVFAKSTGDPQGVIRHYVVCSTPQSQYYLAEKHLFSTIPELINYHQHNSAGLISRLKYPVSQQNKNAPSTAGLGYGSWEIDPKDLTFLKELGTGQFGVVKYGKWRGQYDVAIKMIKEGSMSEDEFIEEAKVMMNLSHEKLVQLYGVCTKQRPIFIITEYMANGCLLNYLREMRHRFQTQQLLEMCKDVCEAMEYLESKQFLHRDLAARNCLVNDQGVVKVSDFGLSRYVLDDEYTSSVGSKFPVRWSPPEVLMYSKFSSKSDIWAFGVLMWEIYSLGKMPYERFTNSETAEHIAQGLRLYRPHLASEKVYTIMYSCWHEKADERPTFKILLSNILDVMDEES
Experiment: Human Recombinant Btk enzyme assay
Type: biochemical
Details: read-out: Btk IC50 value
property-name: IC50 (nM)

>>> assay_result("Cc1c(-c2c(Cl)cc(C(N)=O)c3[nH]c4c(c23)CC[C@H](C(C)(C)O)C4)cccc1-n1c(=O)[nH]c2c(F)cc(F)cc2c1=O (single isomer, unassigned)")
0.25
>>> assay_result("Cc1c(-c2c(Cl)cc(C(N)=O)c3[nH]c4cc(C(C)(C)O)ccc4c23)cccc1-n1c(=O)cc2c(F)cccn2c1=O (single isomer, unassigned) [Example 36]")
0.28
>>> assay_result("Cc1c(-c2c(F)cc(C(N)=O)c3[nH]c4c(c23)CC[C@H](C(C)(C)O)C4)cccc1-n1c(=O)cc2c(F)cccn2c1=O (single isomer, unassigned) [Example 68]")
0.56

a: Cc1c(-c2c(Cl)cc(C(N)=O)c3[nH]c4cc(C(C)(C)O)ccc4c23)cccc1-n1c(=O)[nH]c2c(F)cccc2c1=O [Example 13]
b: Cc1c(-c2c(Cl)cc(C(N)=O)c3[nH]c4cc(C(C)(C)O)ccc4c23)cccc1-n1c(=O)[nH]c2c(F)cccc2c1=O (single isomer, unassigned) [Example 14]
Param pair: a , b . Output: the one whose IC50 is numerically greater. Lab log: write the label of the selected item as the result.
a

* * *

Molecular target: human recombinant Btk (Homo sapiens (Human), UniProt Q06187)
Assay: Human Recombinant Btk enzyme assay
Assay type: biochemical
Conditions: human recombinant Btk 1 nM, ATP 20 μM; read-out: Btk IC50
property-name: IC50 (nM)
Answer in nM, number only, no unit symbol.

Could you share which IC50 value was measured for Cc1nc(C(N)=O)c2[nH]c3cc(C(C)(C)O)ccc3c2c1-c1cccc(-n2cnc3ccccc3c2=O)c1C [Comparative Example 76, reference compound] ?
6.9

* * *

Biological target: human recombinant Btk (Homo sapiens (Human))
Assay: Human Recombinant Btk enzyme assay
Format: biochemical
Settings: read-out: Btk IC50 value
pIC50: −log10 of the molar value.
property-name: pIC50

>>> assay_result("Cc1c(-c2c(F)cc(C(N)=O)c3[nH]c4cc(C(C)(C)O)ccc4c23)cccc1-n1c(=O)cc2c(Cl)cccn2c1=O (single isomer, unassigned) [Example 31]")
9.72
>>> assay_result("Cc1c(-c2c(F)cc(C(N)=O)c3[nH]c4c(c23)CC[C@H](C(C)(C)O)C4)cccc1-n1c(=O)c2cccc(F)c2n(C)c1=O (atropisomer, axis not shown)")
9.27
>>> assay_result("Cc1c(-c2c(F)cc(C(N)=O)c3[nH]c4cc(C(C)(C)O)ccc4c23)cccc1-n1c(=O)cc2c(F)cccn2c1=O (single isomer, unassigned) [Example 41]")
9.70

a: Cc1c(-c2c(C#N)cc(C(N)=O)c3[nH]c4cc(C(C)(C)O)ccc4c23)cccc1-n1c(=O)c2cccc(F)c2n(C)c1=O (single isomer, unassigned) [Example 16]
b: Cc1c(-c2c(F)cc(C(N)=O)c3[nH]c4c(c23)CC[C@@H](C(C)(C)O)C4)cccc1-n1c(=O)[nH]c2c(F)cccc2c1=O (single isomer, unassigned)
Param pair: a , b . Output: the one whose pIC50 is numerically greater. Lab log: write the label of the selected item as the result.
a
(a: 9.57, b: 9.31)
